# melting point values compiled below
attribute.measured: melting point (°C)

molecule | data.value
COCC(=O)N(c1c(C)cccc1C)C(C)C(=O)OC (centres undefined) [metalaxyl] | 72
COc1cc(O)c2c(=O)c(OC3OC(CO)C(O)C(O)C3OC3OC(C)C(O)C(O)C3O)c(-c3ccc(O)c(O)c3)oc2c1 (centres undefined) | 187
O=C1c2ccccc2-c2ccccc21 [9-fluorenone] | 84
C1=CCCCC1 [cyclohexene] | -104
CC(C)(C)c1cnc(C(=O)Nc2cccc(Br)c2)cn1 [N-(3-bromophenyl)-5-tert-butylpyrazine-2-carboxamide] | 114
CCCCCCC [Heptane] | -91
COc1ccc(C=C2N=C(c3ccccc3)OC2=O)cc1 [4-(4-methoxybenzylidene)-2-phenyl-1,3-oxazol-5(4H)-one] | 152
CC(=O)c1ccc(Cl)cc1 [4'-chloroacetophenone] | 19
O=C1CC(c2cccc(O)c2)Oc2ccccc21 (centres undefined) [3'-hydroxyflavanone] | 140

---

compound | display.unit | melting point
CCCCCCCCC(=O)O [nonanoic_acid] | °C | 12
O=C1OC(c2ccccc2)=NC1=Cc1ccco1 [2-Oxazolin-5-one, 4-furfurylidene-2-phenyl-] | °C | 159
O=C(O)C(CBr)CBr [3-bromo-2-(bromomethyl)propionic acid] | °C | 100
Cc1ccc2sc(C)nc2c1 [2,5-dimethylbenzothiazole] | °C | 40
O=C(c1ccc(F)cc1)c1ccc(F)cc1 [4,4'-difluorobenzophenone] | °C | 108

---

# melting point values compiled below
attribute.measured: melting point (°C)

compound | data.value
CC1=CC(O)(c2ccccc2)c2ccccc21 (stereo not given) [3-methyl-1-phenyl-1H-inden-1-ol] | 76
FC(F)(F)c1ccc2cccnc2c1 [7-(trifluoromethyl)quinoline] | 66
CCC1(C2=CCCCCC2)C(=O)NC(=O)NC1=O [Heptabarbital] | 174
C(=C/C#N)C#N [fumaronitrile] | 97
CC(=O)N(C)c1ccc(Cl)cc1Cl [2',4'-dichloro-n-methylacetanilide] | 87
CCCCCCS(=O)(=O)CC#N [N-hexylsulfonylacetonitrile] | 42
COC(=O)c1cc(O)c(O)c(O)c1 [methyl 3,4,5-trihydroxybenzoate] | 201
CC(=O)c1cccc(B(O)O)c1 [3-acetylbenzeneboronic acid] | 203
Cc1ccc([N+](=O)[O-])cc1C [4-nitro-1,2-dimethylbenzene] | 31
Oc1ccc(OCc2ccccc2)cc1 [Monobenzone] | 114

---

# melting point values compiled below

compound | melting point (°C)
N#C/C(=N/Nc1cc(Cl)ccc1Cl)c1nc(-c2ccccc2)cs1 | 134
O=C(O)c1ccc2ccccc2n1 [quinaldic acid] | 158
Brc1ccccc1I [o-bromoiodobenzene] | 10
NCc1ccc2c(Br)cccc2c1 [1-(5-bromonaphthalen-2-yl)methanamine] | 112
C/C=C/C1Nn2c(nnc2-c2ccccc2OC)S1 (stereo unspecified) | 125
NC(=O)c1cc(Cl)cc(Cl)c1 [3,5-dichlorobenzamide] | 160

---

# melting point values compiled below
attribute.measured: melting point

molecule | data.value
CN(C)CC(=O)N1c2ccccc2Sc2ccccc21 | 144 °C
O=c1c2ccccc2sc2ccccc12 | 211 °C
O=C(/C=C/c1ccccc1)n1ccnc1 [1-(trans-cinnamoyl)imidazole] | 130 °C
C1=NN=C2CSCC12 (centres undefined) [4,6-dihydro-1H-thieno[3,4-c]pyrazole] | 133 °C
Oc1ccc2ccccc2c1 | 122 °C
O=C(CC(=O)C(F)(F)F)c1ccco1 | 21 °C
COc1cccc(C)c1C | 29 °C
N#CCCc1ccccc1 | -2 °C
O=C(O)c1ccc(I)cc1 | 270 °C
Nc1cccc(I)c1 | 25 °C
COc1ccc2c(c1)CCCC2=O | 79 °C
CC(C)(C)C1=CC(=O)C(=O)C(C(C)(C)C)=C1 | 115 °C
[2H]C([2H])([2H])C([2H])([2H])C([2H])([2H])C([2H])([2H])C([2H])([2H])C([2H])([2H])C([2H])([2H])C([2H])([2H])C([2H])([2H])C([2H])([2H])C([2H])([2H])C([2H])([2H])C([2H])([2H])C([2H])([2H])C([2H])([2H])C([2H])([2H])C([2H])([2H])C(=O)O | 67 °C
CCCCOC(=O)c1ccc(N)cc1 [butyl 4-aminobenzoate] | 58 °C
O=[N+]([O-])c1ccc(O)c(Cl)c1 | 110 °C
CCCCCN [1-pentylamine] | -55 °C
Nc1ccc(Cl)cc1[N+](=O)[O-] | 118 °C
CCCCP(CCCC)CCCC [Tributylphosphine] | -60 °C
CC(=O)c1ccccc1 | 19 °C
